Source listed as PubChem BioAssay (Tox21).

biological target: Estrogen receptor (Homo sapiens); test: qHTS assay to identify small molecule agonists of the estrogen receptor alpha (ER-alpha) signaling pathway (AID 743075); details: HEK293 ER-alpha-UAS-bla, beta-lactamase FRET ratio, 18 h; series mostly up to 70.1 µM;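 also: HEK293 GripTite cells with ER-alpha and UAS-driven beta-lactamase reporter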
Active and inactive are the calls of the source. Calls follow the shape of the full dose curve.
Possible outcomes: active, inactive

INSERT INTO assay_data (molecule, qualitative_label) VALUES
  ('C=CC(C)(O)CCCC(C)CCCC(C)CCCC(C)C (configuration not stated)', 'inactive'),
  ('CN1CCCN=C1/C=C/c1cccs1', 'active'),
  ('O=S1OCCO1', 'inactive'),
  ('CC(C)(O)c1ccccc1CC[C@@H](SCC1(CC(=O)O)CC1)c1cccc(/C=C/c2ccc3ccc(Cl)cc3n2)c1', 'inactive'),
  ('CCCc1c(OCCCOc2ccc(OCC(=O)O)cc2)ccc(C(C)=O)c1O', 'inactive'),
  ('O=C(O)c1cccnc1C(=O)O', 'inactive'),
  ('O=Cc1c(Cl)cccc1Cl', 'inactive'),
  ('N#C[C@@H]1C[C@@H]2C[C@@H]2N1C(=O)[C@@H](N)C12CC3CC(CC(O)(C3)C1)C2', 'inactive'),
  ('O=C(O)C(Cc1cc(I)c(O)c(I)c1)c1ccccc1 (configuration not stated)', 'inactive'),
  ('CC(C)(CCl)c1ccccc1', 'inactive'),
  ('CCC(C)(O)CCC=C(C)C (configuration not stated)', 'inactive'),
  ('C[Si](NC1CCCCC1)(NC1CCCCC1)NC1CCCCC1', 'inactive'),
  ('CC(CCc1ccc2c(c1)OCO2)NN (configuration not stated)', 'inactive'),
  ('CCCCCCCCCCCC[N+](C)(C)CC(=O)[O-]', 'inactive'),
  ('CCOC(=N)CC(=O)OCC', 'inactive'),
  ('CC(N)CN (configuration not stated)', 'inactive'),
  ('CCCCCCCCCCOS(=O)(=O)O', 'inactive');

* * *

// activity change, negative = inhibition lookup, one value per entry
biological target: Luciferin 4-monooxygenase (Photinus pyralis); assay: qHTS assay to identify small molecule inhibitors of firefly luciferase (AID 1224835); also: % is scaled to controls: 0 for no effect and ±100 for the full control effect; nearly all actives have a fitted effect of over 25% in size; details: purified P. pyralis luciferase, luminescence inhibition; series mostly up to 115 µM
Results filed as inconclusive are left out. Activity calls are given as the source filed them. The call rests on the fitted dose curve; in most records, active means well fitted inhibition curve with a large enough effect in the repeat runs; inconclusive means weak or mixed curves; inactive means flat fitted curve, though single readings scatter.
Attribute measured: activity change, negative = inhibition

INSERT INTO results (molecule, attribute_measured, observed_result) VALUES
  ('C=CCCCCCCCCCCCCCCCC', 'activity change, negative = inhibition', '0.644% [at 10.5 µM] (inactive)'),
  ('CC1CN(c2cc3c(cc2F)c(=O)c(C(=O)O)cn3-c2ccc(F)cc2F)CCN1 (centres undefined)', 'activity change, negative = inhibition', '1.15% [at 10.5 µM] (inactive)'),
  ('CN1CCN(c2c(F)cc3c(=O)c(C(=O)O)cn4c3c2OCN4C)CC1', 'activity change, negative = inhibition', '2.58% [at 23.6 µM] (inactive)'),
  ('CCCC(=O)O[C@]1(C(=O)COC(=O)CC)CC[C@H]2[C@@H]3CCC4=CC(=O)CC[C@]4(C)[C@H]3[C@@H](O)C[C@@]21C', 'activity change, negative = inhibition', '4.64% [at 23.6 µM] (inactive)');

* * *

experiment: qHTS RealTime-Glo MT Cell Viability Assay in HEK293 cells - 40 hour (AID 1224874); settings: RealTime-Glo luminescence; also: potency is read from the fitted curve at half-maximal effect; nearly all actives have a fitted effect of over 50% in size
Results filed as inconclusive are left out. Calls of active or inactive are those of the source. Calls follow the shape of the dose curve; as a rule, active = well fitted cell-killing curve with a large enough effect in the repeat runs; inconclusive = weak or mixed curves, or effect the other way; inactive = flat fitted curve, though single readings scatter.
# Potency listing for each entry below
Attribute measured: Potency

INSERT INTO measurements (smiles_repr, observed_result) VALUES
  ('CCc1nn(CCCN2CCN(c3cccc(Cl)c3)CC2)c(=O)n1CCOc1ccccc1', '8.49 µM (active)'),
  ('CCNC(=O)N1CCN(CCCC(c2ccc(F)cc2)c2ccc(F)cc2)CC1', '16.9 µM (active)'),
  ('CC(C)(C)CC(C)(C)c1ccc(OCCO)cc1', '4.87 µM (active)'),
  ('NC(=O)N(O)[C@@H]1C=C[C@H](Oc2cccc(Oc3ccc(F)cc3)c2)C1', '19.5 µM (active)'),
  ('COc1cc2ncnc(Nc3ccc(F)c(Cl)c3)c2cc1OCCCN1CCOCC1', '10.7 µM (active)'),
  ('COc1cc2c(N3CCN(C(=O)Nc4ccc(OC(C)C)cc4)CC3)ncnc2cc1OCCCN1CCCCC1', '9.52 µM (active)'),
  ('CCOC(=O)[C@@H](C)Oc1ccc(Oc2nc3ccc(Cl)cc3o2)cc1', '21.9 µM (active)'),
  ('CSc1ccc(Oc2ccc(S(N)(=O)=O)cc2CN(C)C)cc1C', '38.9 µM (active)'),
  ('Cc1nc2ccccn2c(=O)c1CCN1CCC(C(=O)c2ccc(F)cc2)CC1', '8.49 µM (active)'),
  ('CC(=O)Oc1ccc2c(c1)CC[C@@H]1[C@@H]2CC[C@]2(C)[C@@H](O)CC[C@@H]12', '16.9 µM (active)');
